Protocol details: % metabolized in monkey S-9 after 2 hours (1 ug/ml)
Type: ADME
Condition info: simiiformes, monkey S-9 fraction; read-out: Activity
The label is class 1 for metabolised at 2 h, 1 ug/ml below 30% and class 0 for metabolised at 2 h, 1 ug/ml equal to or exceeding 30%.

>>> df
                              smiles_record  qualitative_label
0  Cl.Oc1nc2cc3cc(OCCCc4nnnn4C4CCN(Cc5ccc(F)cc5)CC4)ccc3[nH]c-2n1            class 1
1  Cl.Oc1nc2cc3cc(OCCCc4nnnn4C4CCN(Cc5ccccc5)CC4)ccc3[nH]c-2n1            class 1
2  CCC(CC)CN1CCC(n2nnnc2CCCOc2ccc3[nH]c4nc(O)nc-4cc3c2)CC1.Cl            class 0
3  CCC(CC)CN1CCC(S(=O)(=O)CCCOc2ccc3[nH]c4nc(O)nc-4cc3c2)CC1.Cl            class 1
4  Cl.O=C(NCCCOc1ccc2[nH]c3nc(O)nc-3cc2c1)N1CCN(CC2CCCCC2)CC1            class 0
5  Cl.O=S(=O)(CCCOc1ccc2[nH]c3nc(O)nc-3cc2c1)C1CCN(Cc2ccccc2)CC1            class 1
6  Cl.O=S(=O)(CCCOc1ccc2[nH]c3nc(O)nc-3cc2c1)N1CCN(Cc2ccccc2)CC1            class 0
7  O=C(CCCOc1ccc2[nH]c3nc(O)nc-3cc2c1)N1CCN(CC2CCCCC2)CC1            class 0
8  Cl.Oc1nc2cc3cc(OCCCc4nnnn4C4CCN(CC5CCCCC5)CC4)ccc3[nH]c-2n1            class 1
